# study target: LecA (Pseudomonas aeruginosa, UniProt Q05097)
# Construct: made in house
# Sequence (Q05097 whole entry): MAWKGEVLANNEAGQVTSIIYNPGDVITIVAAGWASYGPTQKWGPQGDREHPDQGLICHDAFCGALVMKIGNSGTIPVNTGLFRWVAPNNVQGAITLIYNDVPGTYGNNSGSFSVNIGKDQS
# method summary: competitive binding assay based on fluorescence polarisation (FP)
# conditions used: FP IC50, Table 1; 20 μM LecA, 10 nM reporter ligand 8, TBS/Ca2+ buffer with 4% DMSO (*)
# Procedure: Binding of ligands to LecA was evaluated in competitive assay based on fluorescence polarisation.
assay endpoint: pIC50
In textbook form, pIC50 equals minus log to base ten of the concentration in mol/L.

COc1ccc(C=NNC(=O)c2ccc(OC3OC(CO)C(O)C(O)C3O)cc2)cc1 (centres unmarked) = 4.64

// moving on: another record for pIC50
IN: Query for LecA (Pseudomonas aeruginosa, UniProt Q05097): what pIC50 does the record show for NNC(=O)c1ccc(O[C@@H]2OC(CO)[C@H](O)C(O)C2O)cc1 (some centres unmarked) [reference compound] ?
OUT: 4.65
